# credit: patent US20130090476A1

test parameters: pH 2.7
Marks after values point to notes of the source that are not given here.
The reader will find reported logP values listed item by item below.

1) O=C(Cn1nc(C(F)F)cc1C(F)F)N1CCC(c2nc(CS(=O)(=O)c3nnnn3-c3ccccc3)cs2)CC1    2.97*
2) Cc1ccc(C)c(NC(=O)N2CCC(c3nc(CSc4nnnn4-c4ccccc4)cs3)CC2)c1    3.26*
3) Cc1ccc(Cl)cc1NC(=O)N1CCC(c2nc(CSc3nnnn3-c3ccccc3)cs2)CC1    3.43*
4) Cc1ccc(F)c(NC(=O)N2CCC(c3nc(CSc4nnnn4-c4ccccc4)cs3)CC2)c1    3.28*
5) Cc1ccc(C)c(NC(=S)N2CCC(c3nc(CSc4nnnn4-c4ccccc4)cs3)CC2)c1    3.52*
6) Cc1ccc(Cl)c(NC(=O)N2CCC(c3nc(CSc4nnnn4-c4ccccc4)cs3)CC2)c1    3.72*
7) Cc1ccc(C)c(NC(=O)N2CCC(c3nc(CSC45CC6CC(CC(C6)C4)C5)cs3)CC2)c1    5.38*

Let us move to another entry and its logP.
Param item = Cc1cc(C(F)(F)F)nn1CC(=O)N1CCC(c2nc(CSC34CC5CC(CC(C5)C3)C4)cs2)CC1 ; retrieve measured logP.
5.21*

---

assay name: logP determination by HPLC (EEC Directive 79/831 Annex V.A8), LC-MS
test parameters: pH 2.7, logP, * acidic range, pH 2.7, 0.1% aqueous formic acid/acetonitrile
readout label: chromatographic logP

1) Cc1cc(C(F)(F)F)nn1CC(=O)N1CCC(c2nc(CSc3nnnn3-c3ccccc3)cs2)CC1    3.25
2) Cc1cc(C(F)(F)F)nn1CC(=O)N1CCC(c2nc(CS(=O)(=O)c3cccc4ccccc34)cs2)CC1    3.19
3) Cc1cc(C(F)(F)F)nn1CC(=O)N1CCC(c2nc(CS(=O)(=O)c3cccc4cccnc34)cs2)CC1    2.63
4) O=C(Cn1nc(C(F)F)cc1C(F)F)N1CCC(c2nc(CSC3=NOC(c4ccccc4)C3)cs2)CC1 (centres unmarked)    3.4

Fill in the blank: the reported chromatographic logP of Cc1cc(C(F)(F)F)nn1CC(=O)N1CCC(c2nc(C[S+]([O-])c3nnnn3-c3ccccc3)cs2)CC1 (centres unmarked) is ____.
2.69

What value of chromatographic logP has been recorded for this entry: Cc1cc(C(F)(F)F)nn1CC(=O)N1CCC(c2nc(C[S+]([O-])c3cccc4ccccc34)cs2)CC1 (centres unmarked)
2.86

Look up chromatographic logP for this compound: Cc1cc(C(F)(F)F)nn1CC(=O)N1CCC(c2nc(C[S+]([O-])c3cccc4cccnc34)cs2)CC1 (centres unmarked)
2.48

# input compound: Cc1cc(C(F)(F)F)nn1CC(=O)N1CCC(c2nc(CSC3CCCCC3)cs2)CC1 ; wanted: its chromatographic logP
4.3

So what does the record say about chromatographic logP for Cc1cc(C(F)(F)F)nn1CC(=O)N1CCC(c2nc(CSc3cccc4cccnc34)cs2)CC1 ?
3

---

test parameters: pH 2.7
Marks after values point to notes of the source that are not given here.
readout label: logP

Sample answers from the record:
1) O=C(Cn1nc(C(F)F)cc1C(F)F)N1CCC(c2nc(CSc3nnnn3-c3ccccc3)cs2)CC1    3.11*
2) COc1ccc(C)cc1NC(=O)N1CCC(c2nc(CSc3nnnn3-c3ccccc3)cs2)CC1    3.5*
3) Cc1ccc([N+](=O)[O-])cc1NC(=O)N1CCC(c2nc(CSc3nnnn3-c3ccccc3)cs2)CC1    3.09*
4) Cc1cc(C(F)(F)F)nn1CC(=O)N1CCC(c2nc(CS(=O)(=O)C34CC5CC(CC(C5)C3)C4)cs2)CC1    3.4*
5) O=C(Cc1cc(Cl)ccc1Cl)N1CCC(c2nc(CSc3nnnn3-c3ccccc3)cs2)CC1    3.8*
6) O=C(Cn1nc(C(F)(F)F)cc1C(F)(F)F)N1CCC(c2nc(CSc3nnnn3-c3ccccc3)cs2)CC1    3.8*

Entry O=C(Nc1cc(Cl)ccc1Cl)N1CCC(c2nc(CSc3nnnn3-c3ccccc3)cs2)CC1 : reported logP = ?
3.95*
